Entries and their measured optical density follow.
molecular target: T1, biotinylated goat anti-human kappa light chain; experiment: ELISA; positive control; further: test concentration or dose not given here
T1 construct: Positive control of the ELISA
Your answer is read as OD, so omit the unit and give the number.

Here are 3 binders together with their reported answers.
Would you mind telling me what optical density value was observed for 376_A10 (antibody, V domains shown, VH/VL only) VH: EVQLLESGGGLVQPGGSLRLSCAASGFTFSDYGMNWVRQAPGKGLEWVSNINYNSGYKGYADSVKGRFTISRDNSKNTLYLQMNSLRAEDTAVYYCARSANWHDTALDYWGQGTLVTVSS VL: DIQMTQSPSSLSASVGDRVTITCRASQSILSYLNWYQQKPGKAPKLLIYAATSRASGVPSRFSGSGSGTDFTLTISSLQPEDFATYYCQQSYESPLTFGGGTKVEIK ?
3.17

Would you mind telling me what optical density value was observed for 368_H12 (antibody, V domains shown, VH/VL only) VH: EVQLLESGGGLVQPGGSLRLSCAASGFTFDSYSMNWVRQAPGKGLEWVASINYNSGYKGYADSVKGRFTISRDNSKNTLYLQMNSLRAEDTAVYYCARSATWHDTHLDYWGQGTLVTVSS VL: DIQMTQSPSSLSASVGDRVTITCRASQSIVTYLNWYQQKPGKAPKLLIYAATSRASGVPSRFSGSGSGTDFTLTISSLQPEDFATYYCQQSYESPLTFGGGTKVEIK ?
3.57

Would you mind telling me what optical density value was observed for 376_H10 (antibody, V domains shown, VH/VL only) VH: EVQLLESGGGLVQPGGSLRLSCAASGFTFDSYSMNWVRQAPGKGLEWVSGINYNSGYKSYADSVKGRFTISRDNSKNTLYLQMNSLRAEDTAVYYCARSANWHDTALDYWGQGTLVTVSS VL: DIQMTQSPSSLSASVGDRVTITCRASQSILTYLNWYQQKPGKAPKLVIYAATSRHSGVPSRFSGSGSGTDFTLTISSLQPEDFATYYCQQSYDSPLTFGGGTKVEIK ?
3.54

--- query ---
Would you mind telling me what optical density value was observed for 366_B04 (antibody, V domains shown, VH/VL only) VH: EVQLLESGGGLVQPGGSLRLSCAASGFTFDSYSMNWVRQAPGKGLEWVAGINYNGGYKGYADSVKGRFTISRDNSKNTLYLQMNSLRAEDTAVYYCARSATWHDTHLDYWGQGTLVTVSS VL: DIQMTQSPSSLSASVGDRVTITCRASQSILTYVNWYQQKPGKAPKLVIYAATSRHSGVPSRFSGSGSGTDFTLTISSLQPEDFATYYCQQSYDTPLTFGGGTKVEIK ?
3.4
